# measurement target: T1, recombinant human KDR (human, UniProt P35968 20-764, limits assumed)
# T1 construct: also called VEGFR2
# T1 sequence (P35968 20-764 limits assumed): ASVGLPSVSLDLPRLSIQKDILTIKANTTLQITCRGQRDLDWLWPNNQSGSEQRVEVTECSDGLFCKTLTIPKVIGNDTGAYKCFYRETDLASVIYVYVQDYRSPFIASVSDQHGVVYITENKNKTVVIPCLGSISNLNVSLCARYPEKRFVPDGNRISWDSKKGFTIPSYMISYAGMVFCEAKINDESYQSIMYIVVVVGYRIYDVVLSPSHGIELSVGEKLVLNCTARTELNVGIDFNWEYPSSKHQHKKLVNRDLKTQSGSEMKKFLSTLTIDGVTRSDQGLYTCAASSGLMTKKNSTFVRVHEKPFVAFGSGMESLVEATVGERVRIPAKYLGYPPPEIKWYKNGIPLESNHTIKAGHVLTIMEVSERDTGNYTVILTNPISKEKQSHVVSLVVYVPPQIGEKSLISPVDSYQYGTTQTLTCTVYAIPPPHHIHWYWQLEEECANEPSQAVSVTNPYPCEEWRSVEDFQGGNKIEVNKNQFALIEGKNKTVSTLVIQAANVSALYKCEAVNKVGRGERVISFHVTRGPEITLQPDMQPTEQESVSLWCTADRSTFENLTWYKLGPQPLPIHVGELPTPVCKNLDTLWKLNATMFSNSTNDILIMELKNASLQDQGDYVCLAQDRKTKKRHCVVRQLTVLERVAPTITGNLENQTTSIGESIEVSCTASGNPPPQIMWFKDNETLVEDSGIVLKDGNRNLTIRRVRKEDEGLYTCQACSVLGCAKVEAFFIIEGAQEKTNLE
# assay info: inhibition of KDR binding to VEGF, ligand-receptor binding assay
readout name: pIC50
// field semantics: pIC50 = negative decimal log of concentration (mol/L)

Consider the worked cases shown below.
>>> data_value("clone 36 rabbit anti-KDR antibody (antibody, V domains shown, rabbit IgG, recombinantly expressed in 293-6E cells; also called R-36; parental rabbit monoclonal antibody 36) VH: QSVEESGGRLVTPGTPLTLTCTVSGIDLNNYAMSWVRQAPGKGLEWIGIIGSSGSIFYASWAKGRITISKTSTTVDLKFTSLTTEDTATYFCARVLWAGSVAYAYHNIWGPGTLVTVSS VL: DPVMTQTPASVSEPVGGTVTINCQASEELGSNLAWYQQKPGQPPKLLIYSASTLASGVPSRFKGSGSGTEYTLTISDLECADAATYYCQYTYFGSSYLGAFGGGTEVVVK")
8.20
>>> data_value("rabbit anti-KDR antibody clone 15 (antibody, V domains shown, rabbit monoclonal antibody, recombinantly expressed and purified for characterization) VH: QSLEESGGDLVKPGTSLTLTCTASGFSFSARHFMYWVRQAPGKGLEWIGCIDIGSGSTYYTSWAKDRFTISKPSSTTVTLQMTSLTAADTATYFCARSSGYPYYFTLWGPGTLVTVSS VL: AVVLTQTTSSVSADVGGTVTIKCQASENIYSLLAWYQQKPGQPPKLLIYSASDLASGVPSRFSGSGFGTEFTLTISDLECADAATYHCQSYYYSGSSADTGAFGGGTEVVVK")
7.76

From here, focus on the item given below.
IN: I would be grateful if you could share the reported pIC50 for rabbit anti-KDR antibody clone 23 (antibody, V domains shown, rabbit monoclonal antibody, recombinantly expressed and purified for characterization) VH: QSVEESGGRLVTPGTPLTLTCTVSGFSLSSNAMSWVRQAPGEGLEWIGTISSSGSTYYATWVKGRFTISKTSTTVDLKMTSLTAADTATYFCARGDDDVSDYFYYFPIWGPGTLVTVSS VL: AVVLTQTASPVSGAVGGTVTIKCQASQNIYNNLAWYRQKPGQPPKLLIYAASKLASGVPSRFSGSRSGTQFTLSISDLECADAATYYCQSYYFDSSSTDAAFGGGTEVVVK .
OUT: 7.67
